Test: Pharmacokinetic study of dalbavancin components in rat plasma after IV dalbavancin hydrochloride (UHPLC-MS/MS)
Conditions: both, Sprague-Dawley, rat, iv, 40 mg/kg, Vz (apparent volume of distribution), D1, single-dose group, SD rats, IV 40 mg/kg dalbavancin hydrochloride, mean ± SD, n = 10
# Vd per entry
Report the figure in L/kg without appending any unit label.

CC(C)CCCCCCCCC(=O)N[C@H]1[C@H](Oc2c3cc4cc2Oc2ccc(cc2Cl)[C@@H](O)[C@@H]2NC(=O)[C@H](NC(=O)[C@@H]4NC(=O)[C@H]4NC(=O)[C@@H](Cc5ccc(cc5)O3)NC(=O)[C@H](N(C)C)c3ccc(O)c(c3)Oc3cc(O)c(Cl)c4c3)c3ccc(O)c(c3)-c3c(O[C@H]4O[C@H](CO)[C@@H](O)[C@H](O)[C@@H]4O)cc(O)cc3[C@@H](C(=O)NCCCN(C)C)NC2=O)O[C@H](C(=O)O)[C@@H](O)[C@@H]1O [B2] : 28

In: # get_value(readout='Vd', item= CCCCCCCCCCCC(=O)N[C@H]1[C@H](Oc2c3cc4cc2Oc2ccc(cc2Cl)[C@@H](O)[C@@H]2NC(=O)[C@H](NC(=O)[C@@H]4NC(=O)[C@H]4NC(=O)[C@@H](Cc5ccc(cc5)O3)NC(=O)[C@H](NC)c3ccc(O)c(c3)Oc3cc(O)c(Cl)c4c3)c3ccc(O)c(c3)-c3c(O[C@H]4O[C@H](CO)[C@@H](O)[C@H](O)[C@@H]4O)cc(O)cc3[C@@H](C(=O)NCCCN(C)C)NC2=O)O[C@H](C(=O)O)[C@@H](O)[C@@H]1O [B1] )
Out: 2.3

Values from paper PMC7570859
